Reference source: ChEMBL document CHEMBL1649107

// 72 kDa type IV collagenase (Homo sapiens, UniProt P08253) Ki records
Write the number in nM without appending the unit.

Here are 5 compounds together with their reported answers.
Measured on 72 kDa type IV collagenase (Homo sapiens, UniProt P08253), CCCS(=O)(=O)Oc1ccc(S(=O)(=O)CC2CS2)cc1 (configuration not stated) has a documented Ki of 280

Sample CCS(=O)(=O)Oc1ccc(S(=O)(=O)CC2CS2)cc1 (configuration not stated) , system: 72 kDa type IV collagenase (Homo sapiens, UniProt P08253). Its Ki is 90

// Ki (72 kDa type IV collagenase (Homo sapiens, UniProt P08253)) for CCCS(=O)(=O)Oc1ccc(Oc2ccc(S(=O)(=O)CC3CS3)cc2)cc1 (configuration not stated) = 34

Let me check: CC(C)CS(=O)(=O)Oc1ccc(S(=O)(=O)CC2CS2)cc1 (configuration not stated) , system 72 kDa type IV collagenase (Homo sapiens, UniProt P08253), measured Ki is 240

Summary: CC(C)CS(=O)(=O)Oc1ccc(Oc2ccc(S(=O)(=O)CC3CS3)cc2)cc1 (configuration not stated) , 72 kDa type IV collagenase (Homo sapiens, UniProt P08253), Ki = 61

Others:
Summary: CCS(=O)(=O)Oc1ccc(Oc2ccc(S(=O)(=O)CC3CS3)cc2)cc1 (configuration not stated) , 72 kDa type IV collagenase (Homo sapiens, UniProt P08253), Ki = 70

Entry CS(=O)(=O)Oc1ccc(S(=O)(=O)CC2CS2)cc1 (configuration not stated) , 72 kDa type IV collagenase (Homo sapiens, UniProt P08253) data, Ki value: 390
